# target or test system: T1, human C-MET His tagged, monomeric (human, UniProt P08581 25-932)
# T1 construct: also called monomeric human C-MET; biotinylated human C-MET-His
# T1 sequence (P08581 25-932): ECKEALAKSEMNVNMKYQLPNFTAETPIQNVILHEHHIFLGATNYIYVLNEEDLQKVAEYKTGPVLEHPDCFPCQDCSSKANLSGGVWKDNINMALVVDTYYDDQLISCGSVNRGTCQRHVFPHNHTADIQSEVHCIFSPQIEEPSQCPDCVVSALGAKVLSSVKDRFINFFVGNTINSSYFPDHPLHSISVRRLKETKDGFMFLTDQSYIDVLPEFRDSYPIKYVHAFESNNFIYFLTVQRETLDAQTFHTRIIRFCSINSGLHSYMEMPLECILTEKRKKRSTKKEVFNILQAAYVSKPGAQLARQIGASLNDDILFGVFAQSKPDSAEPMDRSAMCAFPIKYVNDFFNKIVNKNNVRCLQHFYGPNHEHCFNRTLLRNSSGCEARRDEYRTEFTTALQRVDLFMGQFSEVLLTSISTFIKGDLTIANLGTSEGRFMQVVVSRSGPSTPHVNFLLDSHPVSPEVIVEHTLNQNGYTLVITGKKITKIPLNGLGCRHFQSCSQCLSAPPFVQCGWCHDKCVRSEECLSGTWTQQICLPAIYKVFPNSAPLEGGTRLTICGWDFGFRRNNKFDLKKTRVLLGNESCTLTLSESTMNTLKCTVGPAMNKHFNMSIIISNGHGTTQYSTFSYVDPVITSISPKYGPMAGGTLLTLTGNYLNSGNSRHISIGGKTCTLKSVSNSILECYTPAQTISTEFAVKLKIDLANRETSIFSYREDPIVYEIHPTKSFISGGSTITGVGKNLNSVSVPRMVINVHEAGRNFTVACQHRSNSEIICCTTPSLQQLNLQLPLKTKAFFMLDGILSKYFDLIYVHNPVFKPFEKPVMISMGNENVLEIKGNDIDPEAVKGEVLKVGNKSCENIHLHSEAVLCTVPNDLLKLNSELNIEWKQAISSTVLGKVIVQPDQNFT
# assay comment: SPR Biacore, IgG captured, monomeric C-MET-His analyte
measurement kind: pKd
Recall that pKd is obtained by taking minus log10 of the concentration measured in molar.

binder | pKd
MH4 (antibody, IgG4, V domains shown) VH: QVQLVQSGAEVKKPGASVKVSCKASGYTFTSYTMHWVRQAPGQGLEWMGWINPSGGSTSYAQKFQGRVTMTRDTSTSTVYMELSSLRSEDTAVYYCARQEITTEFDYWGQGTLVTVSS VL: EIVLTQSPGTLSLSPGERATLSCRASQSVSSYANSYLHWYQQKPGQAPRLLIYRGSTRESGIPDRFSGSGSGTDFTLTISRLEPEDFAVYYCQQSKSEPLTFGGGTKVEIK | 9.55

Challenge: Fill blank: measured pKd of the binder 09E04 (antibody, IgG4, V domains shown) VH: QVQLVQSGAEVKKPGASVKVSCKASGYIFTSYTMHWVRQAPGQGLEWMGWINPNGGSTSYAQKFQGRVTMTRDTSTSTVYMELSSLRSEDTAVYYCARQEITTEFDYWGQGTLVTVSS VL: EIVLTQSPGTLSLSPGERATLSCRASQSVESYANSYLHWYQQKPGQAPRLLIYRGSTRESGIPDRFSGSGSGTDFTLTISRLEPEDFAVYYCQQYGSEPLTFGGGTKVEIK is ____.
Response given: 9.74

Challenge: And Grafted clone (Graft), IGHV1-46/IGKV3-20 CDR graft of 224G11 (antibody, human IgG4, V domains shown, also called VH graft/VL graft) VH: QVQLVQSGAEVKKPGASVKVSCKASGYIFTAYTMHWVRQAPGQGLEWMGWIKPNNGLANYAQKFQGRVTMTRDTSTSTVYMELSSLRSEDTAVYYCARSEITTEFDYWGQGTLVTVSS VL: EIVLTQSPGTLSLSPGERATLSCRASQSVDSYANSFLHWYQQKPGQAPRLLIYRASTRESGIPDRFSGSGSGTDFTLTISRLEPEDFAVYYCQQSKEDPLTFGGGTKVEIK ?
Response given: 9.43
